Experiment: in vitro
Conditions: male, Sprague-Dawley, rat, microsomes, Half-life
parameter: half-life at 1 μM

Guide cases for half-life at 1 μM, answers given:
molecule	half-life at 1 μM
CCCCCCCCCCCCCCCC(=O)NCCOC(=O)CCC	< 1 min
CCCCCCCCCCCCCCCC(=O)NCCOC(=O)CCC(=O)OC(CO)CO	< 10 min
CCCCC/C=C\C/C=C\CCCCCCCC(=O)OCCNC(=O)CCCCCCCCCCCCCCC	> 60 min

Noted for CCCCCCCCCCCCCCCC(=O)NCCOC(=O)CCC(=O)OCC(COC(=O)CCCCCCC)OC(=O)CCCCCCC (stereo not shown) [Compound I-3, PEA-Succinate-Glycerol-Di-Caprylic] : its half-life at 1 μM reads > 60 min

The molecule identified as CCCCC/C=C\C/C=C\CCCCCCCC(=O)OCC(COC(=O)CCC(=O)OCCNC(=O)CCCCCCCCCCCCCCC)OC(=O)CCCCCCC/C=C\C/C=C\CCCCC (stereo not shown) registered its half-life at 1 μM at 41 min

// sample `CCCCCCCCCCCCCCCC(=O)NCCOC(=O)CCC(=O)OC(COC(=O)CCC)COC(=O)CCC` , its half-life at 1 μM was < 10 min

Field half-life at 1 μM (entry CCCCCCCCCCCCCCCC(=O)NCCOC(=O)CCC(=O)OCC(O)CO (stereo not shown) ) reads 1.8 min

* * *

Experiment: in vitro
Conditions: male, Beagle, dog, 0 min, 1 μM
Measured Measured concentration of analyte PEA, 0 min of individual entries

compound	result
CCCCCCCCCCCCCCCC(=O)NCCOC(=O)CCC	0.23 µM
CCCCCCCCCCCCCCCC(=O)NCCOC(=O)CCC(=O)OCC(O)CO (stereo not shown)	0.39 µM
CCCCCCCCCCCCCCCC(=O)NCCOC(=O)CCC(=O)OCC(COC(=O)CCCCCCC)OC(=O)CCCCCCC (stereo not shown) [Compound I-3, PEA-Succinate-Glycerol-Di-Caprylic]	0.00074 µM
CCCCC/C=C\C/C=C\CCCCCCCC(=O)OCCNC(=O)CCCCCCCCCCCCCCC	0.030 µM
CCCCCCCCCCCCCCCC(=O)NCCOC(=O)CCC(=O)OC[C@H]1O[C@@](CO)(O[C@H]2O[C@H](CO)[C@@H](O)[C@H](O)[C@H]2O)[C@@H](O)[C@@H]1O	0.59 µM

get_value(item= CCCCCCCCCCCCCCCC(=O)NCCOC(=O)CCC(=O)OCC(COC(=O)CCC)OC(=O)CCC (stereo not shown) , readout=Measured concentration of analyte PEA, 0 min) returns 0.032 µM

# Measured concentration of analyte PEA, 0 min of `CC/C=C\C/C=C\C/C=C\C/C=C\C/C=C\CCCC(=O)OCCNC(=O)CCCCCCCCCCCCCCC` = 0.025 µM

* * *

Parameter: % Remaining of Initial (n = 1), 60 min. Scope: all listed entries.
Test: in vitro
Conditions: male, Beagle, dog, s9, 1 h, 1 μM
Dear colleague, please return just the value in %, with no unit written.

Take a look at these entries with their results.
molecule	outputUnit	numericReadout
CCCCCCCCCCCCCCCC(=O)NCCOC(=O)CCC(=O)OCC(COC(=O)CCCCCCC)OC(=O)CCCCCCC (stereo not shown) [Compound I-3, PEA-Succinate-Glycerol-Di-Caprylic]	%	86
CC/C=C\C/C=C\C/C=C\C/C=C\C/C=C\CCCC(=O)OCCNC(=O)CCCCCCCCCCCCCCC	%	85

Sample `CCCCC/C=C\C/C=C\CCCCCCCC(=O)OCCNC(=O)CCCCCCCCCCCCCCC` ; % Remaining of Initial (n = 1), 60 min observed: 110

* * *

# % Remaining of Initial (n = 1), 60 min annotations
Assay: in vitro
Settings: male, Beagle, dog, s9, 1 h, 1 μM
Output spec: scalar in %, unitless text.

// solved cases for % Remaining of Initial (n = 1), 60 min follow
molecule	parameter	numericReadout
CC/C=C\C/C=C\C/C=C\C/C=C\C/C=C\CCCC(=O)OCCNC(=O)CCCCCCCCCCCCCCC [Compound I-5]	% Remaining of Initial (n = 1), 60 min	36
CCCCC/C=C\C/C=C\CCCCCCCC(=O)OCCNC(=O)CCCCCCCCCCCCCCC [Compound I-6]	% Remaining of Initial (n = 1), 60 min	38

Now consider a different molecule.
% Remaining of Initial (n = 1), 60 min in this record for CCCCCCCCCCCCCCCC(=O)NCCOC(=O)CCC(=O)OCC(COC(=O)CCCCCCC)OC(=O)CCCCCCC (stereo not shown) [Compound I-3, PEA-Succinate-Glycerol-Di-Caprylic] : 18

* * *

Test: in vitro
Conditions: male, CD-1, mouse, s9, 0 h, 1 μM
parameter: % Remaining of Initial (n = 1), 0 min (%)
Please respond with the number in % and leave the unit unwritten.

# count of solved cases: 2
molecule	% Remaining of Initial (n = 1), 0 min [%]
CCCCCCCCCCCCCCCC(=O)NCCOC(=O)CCC(=O)OCC(COC(=O)CCCCCCC)OC(=O)CCCCCCC (stereo not drawn) [Compound I-3, PEA-Succinate-Glycerol-Di-Caprylic]	100
CCCCCCCCCCCCCCCC(=O)NCCOC(=O)CCC(=O)OC[C@H]1O[C@@](CO)(O[C@H]2O[C@H](CO)[C@@H](O)[C@H](O)[C@H]2O)[C@@H](O)[C@@H]1O [Compound I-7]	100

Let's switch to this molecule now.
// % Remaining of Initial (n = 1), 0 min lookup, molecule = CCCCCCCCCCCCCCCC(=O)NCCOC(=O)CCC(=O)OCC(COC(=O)CCC)OC(=O)CCC (stereo not drawn) [Compound I-11] , result: 100

* * *

Experiment: Intestinal S9 fraction stability, rat
Settings: male, Sprague-Dawley, rat, s9, Clint, control compound, Example 4 control run
parameter: microsomal CLint (µL/min/mg)
Please reply with the bare figure in µL/min/mg and do not write the unit itself.

# microsomal CLint (compound: C[C@]12CC[C@H]3[C@@H](CCC4=CC(=O)CC[C@@]43C)[C@@H]1CC[C@@H]2O [Testosterone, testosterone, reference compound] ) is 5.97

* * *

Experiment: Simulated intestinal fluid (SIF) stability in the presence of various enzymes
Assay type: in vitro ADME
Conditions: SIF + Chymotrypsin, 15 min, 1 μM
Measured % Remaining of Initial (n = 1) by item
Reply numerically in %, unit not repeated.

The following compounds have reported results that may help.
compound	numericReadout
CCCCCCCCCCCCCCCC(=O)NCCOC(=O)CCC(=O)OC[C@H]1O[C@@](CO)(O[C@H]2O[C@H](CO)[C@@H](O)[C@H](O)[C@H]2O)[C@@H](O)[C@@H]1O [Compound I-7]	42
CC/C=C\C/C=C\C/C=C\C/C=C\C/C=C\CCCC(=O)OCCNC(=O)CCCCCCCCCCCCCCC [Compound I-5]	75
CCCCC/C=C\C/C=C\CCCCCCCC(=O)OCCNC(=O)CCCCCCCCCCCCCCC [Compound I-6]	106

For the next question, use this compound.
Lab note: measured % Remaining of Initial (n = 1) of CCCCCCCCCCCCCCCC(=O)NCCOC(=O)CCC(=O)OCC(O)CO (stereo not shown) [Compound I-9] was 45

* * *

Test: in vitro
Settings: male, Beagle, dog, microsomes, 0.5 h, 1 μM
Examples of compounds with documented % Remaining of Initial, 30 min follow.
Use % as the unit, but write only the number.

Please review the following examples before continuing.
compound	outputUnit	numericReadout
CCCCCCCCCCCCCCCC(=O)NCCOC(=O)CCC(=O)OCC(COC(=O)CCCCCCC)OC(=O)CCCCCCC (stereo not shown) [Compound I-3, PEA-Succinate-Glycerol-Di-Caprylic]	%	85
CCCCC/C=C\C/C=C\CCCCCCCC(=O)OCCNC(=O)CCCCCCCCCCCCCCC	%	91
CC/C=C\C/C=C\C/C=C\C/C=C\C/C=C\CCCC(=O)OCCNC(=O)CCCCCCCCCCCCCCC	%	75

// moving on: another record for % Remaining of Initial, 30 min
Measured % Remaining of Initial, 30 min of `CCCCCCCCCCCCCCCC(=O)NCCOC(=O)CCC(=O)OC[C@H]1O[C@@](CO)(O[C@H]2O[C@H](CO)[C@@H](O)[C@H](O)[C@H]2O)[C@@H](O)[C@@H]1O` : 1.3

* * *

Recorded % Remaining of Initial, 60 min by entry
Assay: in vitro
Conditions: male, Beagle, dog, microsomes, 1 h, 1 μM

molecule	parameter	result
CCCCCCCCCCCCCCCC(=O)NCCOC(=O)CCC(=O)OCC(COC(=O)CCCCCCC)OC(=O)CCCCCCC (stereo not drawn) [Compound I-3, PEA-Succinate-Glycerol-Di-Caprylic]	% Remaining of Initial, 60 min	74%

Recorded % Remaining of Initial, 60 min (molecule CCCCCCCCCCCCCCCC(=O)NCCOC(=O)CCC(=O)OCC(COC(=O)CCC)OC(=O)CCC (stereo not drawn) ): <1.0%

Entry under test: `CCCCCCCCCCCCCCCC(=O)NCCOC(=O)CCC(=O)OC[C@H]1O[C@@](CO)(O[C@H]2O[C@H](CO)[C@@H](O)[C@H](O)[C@H]2O)[C@@H](O)[C@@H]1O` . Its % Remaining of Initial, 60 min was <1.0%
